This collection of values is drawn from ChEMBL document CHEMBL1275350.

Assay: Half life in Sprague-Dawley rat at 5 mg/kg, sc
Type: ADME, organism-based
Set-up: dose 5 mg/kg, route subcutaneous
Settings: in vivo
valueKind: half-life

Incoming: Requested read-out: half-life. Entry: Cc1c2c(=O)n(-c3ccccc3)[nH]c2cc(=O)n1Cc1cccnc1
Outgoing: 42 min

* * *

Assay: Bioavailability in Sprague-Dawley rat at 5 mg/kg, sc
Assay type: ADME, organism-based
Conditions: in vivo
valueKind: bioavailability (%)
One number for each entry, in %.

Incoming: For Cc1c2c(=O)n(-c3ccccc3)[nH]c2cc(=O)n1Cc1cccnc1 , what is its reported bioavailability?
Outgoing: 87

* * *

Target sequence: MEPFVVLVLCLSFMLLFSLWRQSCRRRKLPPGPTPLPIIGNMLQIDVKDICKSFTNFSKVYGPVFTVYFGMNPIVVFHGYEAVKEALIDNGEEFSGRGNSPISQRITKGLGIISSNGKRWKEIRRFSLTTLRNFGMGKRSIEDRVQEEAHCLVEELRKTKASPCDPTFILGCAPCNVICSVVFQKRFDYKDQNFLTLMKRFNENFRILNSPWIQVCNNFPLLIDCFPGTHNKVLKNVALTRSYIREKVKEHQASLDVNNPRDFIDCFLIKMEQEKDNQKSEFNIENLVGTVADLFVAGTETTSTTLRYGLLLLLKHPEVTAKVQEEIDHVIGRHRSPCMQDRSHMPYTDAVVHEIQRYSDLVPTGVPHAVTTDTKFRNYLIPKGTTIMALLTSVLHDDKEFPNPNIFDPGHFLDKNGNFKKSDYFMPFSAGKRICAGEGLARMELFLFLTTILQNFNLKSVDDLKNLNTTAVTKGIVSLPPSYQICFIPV
valueKind: IC50 (µM)
Numbers only, in µM.

Incoming: // query IC50 value for entry CN(Cc1c2c(=O)n(-c3ccccc3Cl)[nH]c2cc(=O)n1Cc1ccncc1)c1ccccc1
Outgoing: 3.6

* * *

Assay: Permeability across human Caco-2 cell membrane at 10 uM after 2 hrs
Type: ADME, cell-based
valueKind: Papp at 2 h, 10 µM (×10⁻⁶ cm/s)
Numbers only, in ×10⁻⁶ cm/s.

Please review the following examples before continuing.
Incoming: Fill in: Papp at 2 h, 10 µM of Cn1c(COCc2ccccc2Cl)c2c(=O)n(-c3ccccc3Cl)[nH]c2cc1=O is ___
Outgoing: 62.6

Incoming: Given the entry O=c1c2c(COCc3ccccc3)n(Cc3cnccn3)c(=O)cc2[nH]n1-c1ccccc1Cl , report its measured Papp at 2 h, 10 µM.
Outgoing: 78.6

Incoming: Give the measured Papp at 2 h, 10 µM of Cc1c2c(=O)n(-c3ccc(F)cc3Cl)[nH]c2cc(=O)n1Cc1ccccn1 .
Outgoing: 13.4

Dear colleague, could you please provide Papp at 2 h, 10 µM for the compounds listed below?
1. COCCn1c(COc2ccc(F)cc2)c2c(=O)n(CCN3CCOCC3)[nH]c2cc1=O
2. Cn1c(COc2ccc(F)cc2)c2c(=O)n(-c3ccccc3Cl)[nH]c2cc1=O
3. Cc1c2c(=O)n(-c3ccccc3Cl)[nH]c2cc(=O)n1Cc1ccccn1
4. COCCCn1c(CN(C)Cc2ccccc2)c2c(=O)n(-c3ccc(F)cc3Cl)[nH]c2cc1=O

Outgoing:
[1.4, 35.5, 21.4, 39.9]

For each listed entry, give its Papp at 2 h, 10 µM.
1. CN(Cc1c2c(=O)n(-c3ccccc3Cl)[nH]c2cc(=O)n1Cc1ccncc1)c1ccccc1
2. Cc1c2c(=O)n(-c3ccccc3)[nH]c2cc(=O)n1Cc1cccnc1
3. O=c1c2c(CN3CCCC3)n(CCc3ccccn3)c(=O)cc2[nH]n1-c1ccc(F)cc1Cl

Outgoing:
1. 4.6
2. 79.2
3. 7.3
